Target: human FXR (NR1H4) (Homo sapiens)
Construct: host or cells: CHO (Chinese hamster ovary) reporter cells
Sequence (Q96RI1 1-486): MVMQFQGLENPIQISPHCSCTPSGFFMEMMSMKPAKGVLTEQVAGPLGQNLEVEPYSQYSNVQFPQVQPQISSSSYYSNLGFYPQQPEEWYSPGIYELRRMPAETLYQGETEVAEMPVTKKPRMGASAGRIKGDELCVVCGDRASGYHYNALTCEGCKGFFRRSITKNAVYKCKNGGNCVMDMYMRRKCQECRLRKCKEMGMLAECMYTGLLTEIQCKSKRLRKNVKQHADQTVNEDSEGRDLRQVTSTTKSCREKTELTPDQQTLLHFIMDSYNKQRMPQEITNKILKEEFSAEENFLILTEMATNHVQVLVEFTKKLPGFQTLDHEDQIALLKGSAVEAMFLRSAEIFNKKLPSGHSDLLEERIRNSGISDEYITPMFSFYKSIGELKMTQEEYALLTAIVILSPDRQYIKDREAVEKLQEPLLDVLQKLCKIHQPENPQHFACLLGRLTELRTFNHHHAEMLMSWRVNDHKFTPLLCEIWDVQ
Assay: Human FXR (NR1H4) Assay (Gal4 promoter driven luciferase reporter assay in CHO cells)
Assay type: cell-based
Conditions: efficacy normalized to CDCA set as 100%, CHO cells expressing human NR1H4
Observed Property: Emax

**Query** What does the record list as Emax for CC(C)Oc1cc(C(=O)O)cc2sc(N(C)[C@H]3CC[C@H](OCc4c(-c5c(Cl)cccc5Cl)noc4C4CC4)CC3)nc12 ?
**Result** 85%

**Query** What does the record list as Emax for CC(C)Oc1cc(C(=O)O)cc2sc(N[C@H]3CC[C@@H](OCc4c(-c5ccccc5OC(F)(F)F)noc4C4CC4)CC3)nc12 ?
**Result** 91%

**Query** What does the record list as Emax for CN(c1ccc2cc(C(=O)O)ccc2n1)[C@@H]1CC[C@H](OCc2c(-c3ccccc3OC(F)(F)F)noc2C2CC2)C1 ?
**Result** 57%
